Origin of the recorded values: PubChem BioAssay (NCI)

# Test system: UACC-62 melanoma
# test description: NCI tumour cell line growth inhibition, 48 h
Record T whenever TGI is at 4 µM or higher; record F when lower.

Worked examples, 3 molecules total:
INSERT INTO results (molecule, group_label) VALUES
  ('COc1ccc(N=NC(=Nc2ccccc2)c2ccc(N(CCC#N)CCC#N)cc2)cc1', 'T'),
  ('COc1ccc(-c2cn[nH]c2-c2cc(OC)c(OC)c(OC)c2)cc1', 'T'),
  ('CC(=O)OCCOCNC(=S)N/N=C(\C)c1cnccn1', 'T');

Form field: TGI at least 4 µM? Entry: `Cc1ccc(/C=C/C(=O)c2cccc3ccccc23)cc1`
T

Same again, this time with C(=C(c1ccc(OC2CCCCO2)cc1)c1ccc(OC2CCCCO2)cc1)c1ccccc1 (stereo unspecified)
F

Same again, this time with CC(C)=CCC(O)C1=CC(=O)c2c(O)ccc(O)c2C1=O (stereo unspecified)
F

Same again, this time with `O=S(=O)(c1ccccc1)N1CCN(S(=O)(=O)c2ccccc2)c2ccccc21`
T

Same again, this time with `CC(C)=CCC[C@@H](C)c1c(O)c(O)c(C)c2nccnc12`
T

====

Exercise: for every item that follows, state its recorded TGI.
# Test system: SNB-75 CNS
# test description: NCI tumour cell line growth inhibition, 48 h

INSERT INTO measurements (compound, measured_value) VALUES
  ('COc1cccc(Nc2nc(-c3cccs3)nc3cc(OC)c(OC)cc23)c1', '73.5 µM'),
  ('NC1(c2cc3ccccc3s2)CCCC1', '> 100 µM'),
  ('C#CCn1c(=O)c2ccccc2n(CC#C)c1=O', '> 10 µM'),
  ('N#C/C(=C\c1cccc(Cl)c1Cl)c1ccccc1', '51.1 µM'),
  ('Nn1c(-c2ccccc2)n[nH]c1=O', '> 100 µM'),
  ('Nc1c(C(=O)Nc2cccc(C(F)(F)F)c2)sc2nc3c(cc12)CCCCC3', '3.93 µM'),
  ('COC(=O)[C@@H](O)[C@](O)(CCC(C)C)C(=O)O[C@@H]1C(OC)=C[C@]23CCCN2CCc2cc4c(cc2[C@H]13)OCO4', '14.1 µM'),
  ('COc1cccc(C2SC(N)=Nc3c2c(C)nn3C(=O)c2ccccc2O)c1 (centres undefined)', '> 10 µM'),
  ('CC(=O)/C=C/C1=C(C)CCCC1(C)CC(C)C (centres undefined)', '93 µM'),
  ('O=C(O)c1ccc2c(c1C(=O)O)C(=O)OC2(c1ccc(O)cc1)c1ccc(O)cc1', '> 100 µM');

Hey, quick one: what's TGI for each of these?
1. CC(=O)N(C(=O)CC(=O)N1N=C(c2ccccc2)C(N=Nc2ccccc2[N+](=O)[O-])C1=O)c1ccc(Cl)cc1 (centres undefined)
2. CN(C)c1cc(NN=C(c2ccc(O)cc2)c2ccc(O)cc2)c([N+](=O)[O-])cc1[N+](=O)[O-]

1. > 10 µM
2. 25 µM

Hey, quick one: what's TGI for each of these?
1. C/C(=C\CBr)CCC(Br)C(C)(C)Br (centres undefined)
2. C[C@]12CCC3c4ccc(O)cc4CCC3C1CC[C@@]2(O)CNC(=O)/C=C/c1ccc(O)c(O)c1 (some centres undefined)
3. CC1(C(=O)O)CCC2(C)CCC3(C)C(=CC(=O)C4C5(C)CCC(O)C(C)(C)C5CCC43C)C2C1 (centres undefined)
4. Cc1cc(C)nc(NS(=O)(=O)c2ccc(NC(=O)c3ccc4nc5ccccc5c(Nc5ccc(S(N)(=O)=O)cc5)c4c3)cc2)n1
5. CCc1c(OC(C)=O)c2c(NC3OCC(OC(C)=O)C(OC(C)=O)C3OC(C)=O)nc(SC)nc2oc1=O (centres undefined)
6. COc1ccc(-c2[nH]c3c4c(nc5c(c24)C(=O)CC(C)(C)C5)CC(C)(C)C3)cc1
7. CCN(CC)CCNC(=O)c1cc2cc(NC(=O)c3cc4cc([N+](=O)[O-])ccc4[nH]3)ccc2[nH]1

1. > 100 µM
2. 29 µM
3. > 100 µM
4. > 100 µM
5. > 100 µM
6. > 100 µM
7. > 100 µM

====

# Tested on: U251 CNS
# test description: NCI tumour cell line growth inhibition, 48 h
Exercise: for every item that follows, state its recorded TGI.

INSERT INTO measurements (compound, property, measured_value) VALUES
  ('CN(C)c1cc(NN=C(c2ccc(O)cc2)c2ccc(O)cc2)c([N+](=O)[O-])cc1[N+](=O)[O-]', 'TGI', '18.3 µM'),
  ('Cc1csc(-c2nnc(Nc3ccc(Oc4ncccc4-c4ccnc(N)n4)cc3)c3ccccc23)c1', 'TGI', '> 100 µM'),
  ('Nc1ccccc1SC(CC(=O)c1ccccc1)c1cccc([N+](=O)[O-])c1 (stereo not given)', 'TGI', '20.7 µM'),
  ('O=C(NCc1ccccc1)c1n[nH][nH]c1=O', 'TGI', '> 100 µM'),
  ('Cc1ccc(NC(=O)c2ccc(OP(=O)(O)Nc3ccc(C)cc3)cc2)cc1', 'TGI', '> 100 µM');

Hey, quick one: what's TGI for each of these?
1. N#CC(NCc1cccc(CNC(C#N)c2ccccc2)c1)c1ccccc1 (stereo not given)
2. C=C(C)CCOC(c1ccccc1)(c1ccccc1)c1ccccc1
3. CC(C)[C@@H]1C=C2CC[C@H]3[C@](C)(CN)CCC[C@]3(C)[C@H]2CC1
4. COc1cc(/C(C#N)=C/c2nc3c(N4CCOCC4)nc(Cl)nc3n2C)cc(OC)c1OC
5. O=C(/C=C/c1ccccc1)C[C@@H](O)C[C@@H]1CC=CC(=O)O1

1: > 100 µM; 2: > 100 µM; 3: 3.28 µM; 4: > 32.2 µM; 5: 21.7 µM

====

# System: CCRF-CEM leukemia
# test description: NCI tumour cell line growth inhibition, 48 h
Exercise: for every item that follows, state its recorded TGI.

INSERT INTO measurements (molecule, target_entity, property, measured_value) VALUES
  ('O=C1NC(=NC(CO)Cc2ccccc2)S/C1=C\c1ccc2ncccc2c1 (configuration not stated)', 'CCRF-CEM leukemia', 'TGI', '> 25 µM'),
  ('C[C@]12CCC3c4ccc(O)cc4CCC3C1CC[C@@]2(O)CNC(=O)/C=C/c1ccc(O)c(O)c1 (some centres not stated)', 'CCRF-CEM leukemia', 'TGI', '31.2 µM');

Hey, quick one: what's TGI for each of these?
1. CCCCCC[C@@H]1CCC2C(CO)[C@@H](O)CC[C@@H]2C1 (some centres not stated)
2. CCN1C(=O)N(c2ccccc2)C2NC(=S)N(/N=C/C=C/c3ccccc3OC)C21 (configuration not stated)
3. O=[N+]([O-])c1ccc(Cl)cc1N/N=C/c1ccnc2ccccc12
4. O=CNc1ccc2c(c1)C(=O)c1ccccc1-2

["79.9 µM", "> 38.5 µM", "> 100 µM", "> 100 µM"]

Hey, quick one: what's TGI for each of these?
1. COc1ccc(OC)c(N2CC(N)C2=O)c1 (configuration not stated)
2. O=C(OCc1ccccc1)N1CCNCCN(C(=O)OCc2ccccc2)CCNCC1
3. COc1ccc2cc1Oc1ccc(cc1)C[C@H]1c3cc(c(OC)cc3CCN1C)Oc1c(O)c(OC)cc3c1[C@H](C2)N(C)CC3
4. O=C(Cc1ccc(O)c(O)c1)NCc1c[nH]c2ccccc12

1. > 100 µM
2. > 100 µM
3. 83.8 µM
4. 47.8 µM

Hey, quick one: what's TGI for each of these?
1. Cc1ccc(NC(=O)CC2Sc3ccccc3NC2=O)cc1C (configuration not stated)
2. C#CCn1c(=O)c2ccccc2n(CC#C)c1=O
3. Cc1ccc(/C=C/C(=O)c2cccc3ccccc23)cc1
4. CCCCCCCC/C=C\CCCCCCCCCCCC(=O)O
5. O=C(O)c1ccc2c(c1C(=O)O)C(=O)OC2(c1ccc(O)cc1)c1ccc(O)cc1
6. COc1ccc2nc(NC(=O)CSc3nnc4n3S(=O)(=O)c3ccccc3N4c3ccccc3)sc2c1
7. COc1ccc(/C=c2\sc3n(c2=O)CCN=3)cc1
8. Cc1csc(-c2nnc(Nc3ccc(Oc4ncccc4-c4ccnc(N)n4)cc3)c3ccccc23)c1

1: 92.3 µM; 2: > 10 µM; 3: 67 µM; 4: 57.5 µM; 5: > 100 µM; 6: > 100 µM; 7: > 100 µM; 8: > 100 µM

Hey, quick one: what's TGI for each of these?
1. c1ccc(NCn2cnc3ccccc32)cc1
2. O=C(C1OC1c1ccc(Br)cc1O)C12CC3CC(CC(C3)C1)C2 (configuration not stated)
3. O=C(/C=C/c1ccccc1)C[C@@H](O)C[C@@H]1CC=CC(=O)O1
4. COc1cccc(C(=O)NC(c2ccc(C)cc2)c2cc(Cl)c3cccnc3c2O)c1 (configuration not stated)

["> 100 µM", "> 100 µM", "5.12 µM", "11.7 µM"]
